Molecular target: NTRK1 (Homo sapiens, UniProt P04629)
Construct: made in house
Sequence (P04629 33-796): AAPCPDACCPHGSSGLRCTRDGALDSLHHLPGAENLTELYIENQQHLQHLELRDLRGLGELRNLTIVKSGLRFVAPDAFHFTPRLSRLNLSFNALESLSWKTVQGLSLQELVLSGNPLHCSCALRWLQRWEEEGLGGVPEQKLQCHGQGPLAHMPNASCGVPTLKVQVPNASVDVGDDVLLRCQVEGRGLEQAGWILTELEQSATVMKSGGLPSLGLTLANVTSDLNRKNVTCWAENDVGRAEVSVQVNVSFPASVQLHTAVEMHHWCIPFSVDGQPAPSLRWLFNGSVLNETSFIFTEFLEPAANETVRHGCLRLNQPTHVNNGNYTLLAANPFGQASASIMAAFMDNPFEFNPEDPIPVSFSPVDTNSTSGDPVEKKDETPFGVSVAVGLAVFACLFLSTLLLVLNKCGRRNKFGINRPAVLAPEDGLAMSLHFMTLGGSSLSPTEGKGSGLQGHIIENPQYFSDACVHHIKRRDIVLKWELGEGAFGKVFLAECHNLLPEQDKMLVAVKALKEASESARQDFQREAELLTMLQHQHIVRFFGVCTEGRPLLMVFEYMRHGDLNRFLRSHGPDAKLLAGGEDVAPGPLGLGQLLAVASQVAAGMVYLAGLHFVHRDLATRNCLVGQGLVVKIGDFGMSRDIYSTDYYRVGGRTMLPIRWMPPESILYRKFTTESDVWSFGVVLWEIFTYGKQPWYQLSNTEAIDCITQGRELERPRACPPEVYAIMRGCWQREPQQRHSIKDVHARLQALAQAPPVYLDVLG
Test: Kinase inhibition test (DNA-tagged kinase, affinity resin, qPCR readout)
Type: binding
Set-up: key: (−) indicates no effect; (+) indicates weak inhibitory activity; (++) indicates a moderate level of inhibitory activity; (+++) indicates strong inhibitory activity
Details: 1 μM of compound
ENDPOINT: NTRK1 inhibitory activity

Illustrative cases are given below, each with its answer.
N#Cc1cn([C@@H]2S[C@H](CN)[C@@H](O)[C@H]2O)c2ncnc(N)c12 [Compound 10b]	++
C#Cc1cn([C@@H]2S[C@H](COC(=O)c3ccc(OC)cc3)[C@@H](O)[C@H]2O)c2ncnc(N)c12	++
N#Cc1cn([C@@H]2S[C@H](CNC(=O)c3ccccc3)[C@@H](O)[C@H]2O)c2ncnc(N)c12	+++
Nc1ncnc2c1c(-c1cccs1)cn2[C@@H]1SC[C@@H](O)[C@H]1O [Compound 13c]	+++
C#Cc1cn([C@@H]2S[C@H](CNCC)[C@@H](O)[C@H]2O)c2ncnc(N)c12 [Compound 11b]	+++

Output NTRK1 inhibitory activity of C#Cc1cn([C@@H]2S[C@H](CN)[C@@H](O)[C@H]2O)c2ncnc(N)c12 [Compound 10a] +++

Output NTRK1 inhibitory activity of C#Cc1cn([C@@H]2S[C@H](CNC(=O)c3ccccc3)[C@@H](O)[C@H]2O)c2ncnc(N)c12 +++

Output NTRK1 inhibitory activity of C#Cc1cn([C@@H]2SC[C@@H](O)[C@H]2O)c2ncnc(N)c12 [Compound 13a] ++

###

Target: DYRK1B (Homo sapiens)
Construct: made in house
Test: Kinase inhibition test (DNA-tagged kinase, affinity resin, qPCR readout)
Format: binding
Design: key: (−) indicates no effect; (+) indicates weak inhibitory activity; (++) indicates a moderate level of inhibitory activity; (+++) indicates strong inhibitory activity
Conditions: 1 μM of compound
ENDPOINT: DYRK1B inhibitory activity

C#Cc1cn([C@@H]2S[C@H](CNC(=O)c3ccc(OC)cc3)[C@@H](O)[C@H]2O)c2ncnc(N)c12	++
C=Cc1cn([C@@H]2SC[C@@H](O)[C@H]2O)c2ncnc(N)c12 [Compound 13e]	++
NC(=O)NC[C@H]1S[C@@H](n2cc(C(N)=O)c3c(N)ncnc32)[C@H](O)[C@@H]1O	++
C#Cc1cn([C@@H]2S[C@H](CO)[C@@H](O)[C@H]2O)c2nc(Cl)nc(N)c12	+++
C#Cc1cn([C@@H]2S[C@H](CNC(=O)c3ccccc3)[C@@H](O)[C@H]2O)c2ncnc(N)c12	+++

Output DYRK1B inhibitory activity of N#Cc1cn([C@@H]2S[C@H](CO)[C@@H](O)[C@H]2O)c2ncnc(N)c12 ++

Output DYRK1B inhibitory activity of Nc1ncnc2c1c(-c1ccccc1)cn2[C@@H]1SC[C@@H](O)[C@H]1O [Compound 13d] ++

Output DYRK1B inhibitory activity of NC(=O)c1cn([C@@H]2S[C@H](CNC(=O)c3ccccc3)[C@@H](O)[C@H]2O)c2ncnc(N)c12 ++

Output DYRK1B inhibitory activity of Nc1ncnc2c1c(C#CC1CC1)cn2[C@@H]1S[C@H](CO)[C@@H](O)[C@H]1O −

Output DYRK1B inhibitory activity of Nc1ncnc2c1c(-c1ccco1)cn2[C@@H]1SC[C@@H](O)[C@H]1O [Compound 13b] +++

Output DYRK1B inhibitory activity of C#Cc1cn([C@@H]2S[C@H](CNCC)[C@@H](O)[C@H]2O)c2ncnc(N)c12 [Compound 11b] ++

Output DYRK1B inhibitory activity of N#Cc1cn([C@@H]2S[C@H](CN=[N+]=[N-])[C@@H](O)[C@H]2O)c2ncnc(N)c12 +++

Output DYRK1B inhibitory activity of NC(=O)c1cn([C@@H]2S[C@H](CO)[C@@H](O)[C@H]2O)c2ncnc(N)c12 ++

###

Target: DYRK1B (Homo sapiens, UniProt Q9Y463)
Construct: made in house
Sequence (Q9Y463 whole entry): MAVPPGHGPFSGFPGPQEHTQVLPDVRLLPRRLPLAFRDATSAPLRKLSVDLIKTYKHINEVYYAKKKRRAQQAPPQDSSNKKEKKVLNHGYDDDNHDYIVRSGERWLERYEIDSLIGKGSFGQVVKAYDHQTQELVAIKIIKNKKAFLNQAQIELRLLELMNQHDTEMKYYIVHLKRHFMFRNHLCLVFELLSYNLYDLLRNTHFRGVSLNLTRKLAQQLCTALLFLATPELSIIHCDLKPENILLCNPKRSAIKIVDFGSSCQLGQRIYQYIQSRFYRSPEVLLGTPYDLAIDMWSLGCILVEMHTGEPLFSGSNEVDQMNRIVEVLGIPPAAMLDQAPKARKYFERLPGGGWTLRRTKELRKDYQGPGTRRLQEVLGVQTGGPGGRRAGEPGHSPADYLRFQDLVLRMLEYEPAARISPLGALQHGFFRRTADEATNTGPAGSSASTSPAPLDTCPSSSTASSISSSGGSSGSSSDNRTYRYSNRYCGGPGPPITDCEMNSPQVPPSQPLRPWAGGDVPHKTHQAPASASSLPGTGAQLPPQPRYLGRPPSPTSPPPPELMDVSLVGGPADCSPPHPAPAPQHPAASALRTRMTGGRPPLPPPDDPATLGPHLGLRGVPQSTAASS
Assay: Kinase inhibition test (DNA-tagged kinase, affinity resin, qPCR readout)
Assay type: binding
Set-up: key: (−) indicates no effect; (+) indicates weak inhibitory activity; (++) indicates a moderate level of inhibitory activity; (+++) indicates strong inhibitory activity
Details: 1 μM of compound
ENDPOINT: DYRK1B inhibitory activity

Illustrative cases are given below, each with its answer.
[N-]=[N+]=NC[C@H]1S[C@@H](n2cc(C(N)=O)c3c(N)ncnc32)[C@H](O)[C@@H]1O [Compound 9c]	+++
Nc1ncnc2c1c(-c1ccco1)cn2[C@@H]1S[C@H](COC(=O)c2ccccc2)[C@@H](O)[C@H]1O [Compound 7a]	+++
Nc1ncnc2c1c(-c1cccs1)cn2[C@@H]1S[C@H](CO)[C@@H](O)[C@H]1O [Compound 1b]	++
C#Cc1cn([C@@H]2SC[C@@H](O)[C@H]2O)c2ncnc(N)c12 [Compound 13a]	++
N#Cc1cn([C@@H]2S[C@H](COC(=O)c3ccccc3)[C@@H](O)[C@H]2O)c2ncnc(N)c12 [Compound 7g]	+++
N#Cc1cn([C@@H]2S[C@H](CN)[C@@H](O)[C@H]2O)c2ncnc(N)c12 [Compound 10b]	+++
C#Cc1cn([C@@H]2S[C@H](CN)[C@@H](O)[C@H]2O)c2ncnc(N)c12 [Compound 10a]	++
Nc1ncnc2c1c(-c1ccco1)cn2[C@@H]1S[C@H](CO)[C@@H](O)[C@H]1O [Compound 1a]	+++
C#Cc1cn([C@@H]2SC(=C)[C@@H](O)[C@H]2O)c2ncnc(N)c12 [Compound 12b]	+++
NC[C@H]1S[C@@H](n2cc(C(N)=O)c3c(N)ncnc32)[C@H](O)[C@@H]1O [Compound 10c]	++

Output DYRK1B inhibitory activity of Nc1ncnc2c1c(-c1cccs1)cn2[C@@H]1SC[C@@H](O)[C@H]1O [Compound 13c] ++

Output DYRK1B inhibitory activity of C#Cc1cn([C@@H]2S[C@H](COC(=O)c3c(C)cccc3C)[C@@H](O)[C@H]2O)c2ncnc(N)c12 [Compound 7e] ++

Output DYRK1B inhibitory activity of NC(=O)c1cn([C@@H]2SC[C@@H](O)[C@H]2O)c2ncnc(N)c12 [Compound 13g] +++

Output DYRK1B inhibitory activity of CCC#Cc1cn([C@@H]2S[C@H](CO)[C@@H](O)[C@H]2O)c2ncnc(N)c12 [Compound 4b] +

Output DYRK1B inhibitory activity of N#Cc1cn([C@@H]2SC[C@@H](O)[C@H]2O)c2ncnc(N)c12 [Compound 13f] +++

Output DYRK1B inhibitory activity of NC(=O)c1cn([C@@H]2S[C@H](COC(=O)c3ccccc3)[C@@H](O)[C@H]2O)c2ncnc(N)c12 [Compound 7h] +++

###

Tested on: SNU638 (stomach cancer cells)
Assay: Inhibitory activity against cancer cells (sulforhodamine B staining)
Assay type: cell-based
Details: 3 days, SRB staining
Procedure: In order to examine the anticancer activity of the nucleoside derivatives of the present invention synthesized in the Preparation Examples, the ICso of each of A549 (lung cancer cells), HCT116 (colon cancer cells), MDA-MB-231 (breast cancer cells), SK-Hep-1 (liver cancer cells), SNU638 (stomach cancer cells) and PC-3 (prostate cancer cells) against cancer cells was measured. The test method is as follows. Cells were allowed to stand for 1 day and set as a control on day 0. […]
ENDPOINT: log10 IC50 (log10 of the value in µM)
Each number you see is log10 of IC50, and the unit inside the log is µM.

Report log10 IC50 from SNU638 (stomach cancer cells) testing of NC(=O)c1cn([C@@H]2SC[C@@H](O)[C@H]2O)c2ncnc(N)c12 [Compound 13g] 0.93

Report log10 IC50 from SNU638 (stomach cancer cells) testing of C#Cc1cn([C@@H]2S[C@H](COC(=O)c3ccncc3)[C@@H](O)[C@H]2O)c2ncnc(N)c12 [Compound 7f] -1.32

Report log10 IC50 from SNU638 (stomach cancer cells) testing of N#Cc1cn([C@@H]2SC[C@@H](O)[C@H]2O)c2ncnc(N)c12 [Compound 13f] 0.97

Report log10 IC50 from SNU638 (stomach cancer cells) testing of N#Cc1cn([C@@H]2S[C@H](CN=[N+]=[N-])[C@@H](O)[C@H]2O)c2ncnc(N)c12 [Compound 9b] -0.92

Report log10 IC50 from SNU638 (stomach cancer cells) testing of C#Cc1cn([C@@H]2S[C@H](COC(=O)c3c(C)cccc3C)[C@@H](O)[C@H]2O)c2ncnc(N)c12 [Compound 7e] 0.68

Report log10 IC50 from SNU638 (stomach cancer cells) testing of Nc1ncnc2c1c(-c1cccs1)cn2[C@@H]1SC[C@@H](O)[C@H]1O [Compound 13c] 0.61

Report log10 IC50 from SNU638 (stomach cancer cells) testing of C#Cc1cn([C@@H]2S[C@H](COC(=O)c3ccc(Cl)cc3)[C@@H](O)[C@H]2O)c2ncnc(N)c12 [Compound 7c] -0.89

Report log10 IC50 from SNU638 (stomach cancer cells) testing of C=Cc1cn([C@@H]2SC[C@@H](O)[C@H]2O)c2ncnc(N)c12 [Compound 13e] 0.55
